Test system: HeLa thapsigargin-induced death, ATPlite luminescence, 24 h
assayDetails: HeLa survival under thapsigargin ER stress – cell-based, HeLa cervical carcinoma, ATP content, SAR follow-up (AID 1356)
testConditions: measured here: survival at thapsigargin 15 uM; at 25 µM; stronger effect = higher value
Hi, to clarify the labels: yes (1) covers survival from 90% upward, no (0) covers anything below 90%.

Below, 3 molecules whose answers are already recorded.
CSc1ccc(C2Nc3ccccc3NC3=C2C(=O)CC(c2ccccc2)C3)cc1 (stereo unspecified) | no (0)
COc1ccc(C2CC(=O)C3=C(C2)Nc2ccccc2NC3c2cc(C)ccc2C)cc1 (stereo unspecified) | no (0)
CCCOc1ccc(C2Nc3ccccc3NC3=C2C(=O)CC(c2ccc(OC)c(OC)c2)C3)cc1 (stereo unspecified) | yes (1)

Record CC1(C)CC(=O)C2=C(C1)Nc1ccccc1NC2c1ccc(-c2ccccc2)cc1 (stereo unspecified) ; criterion: survival no lower than 90%. Met?
yes (1)

Record CCOc1cc(C2Nc3ccccc3NC3=C2C(=O)CC(c2ccc(OC)cc2)C3)cc(Cl)c1O (stereo unspecified) ; criterion: survival no lower than 90%. Met?
no (0)

Record CCOc1cccc(C2Nc3ccccc3NC3=C2C(=O)CC(c2ccc(OC)cc2)C3)c1 (stereo unspecified) ; criterion: survival no lower than 90%. Met?
no (0)

----------
System: HeLa thapsigargin-induced death, ATPlite luminescence, 24 h
assayDetails: HeLa survival under thapsigargin ER stress – cell-based, HeLa cervical carcinoma, ATP content, SAR follow-up (AID 1356)
testConditions: measured here: survival at thapsigargin 20 uM; at 25 µM; stronger effect = higher value
For each record, write down the corresponding survival.
One number for each entry, in %.

COc1ccc(C2CC(=O)C3=C(C2)Nc2ccccc2NC3c2cc(C)ccc2C)cc1 (stereo not given) | 24

For every item below, please supply its survival.
1. CCOc1cccc(C2Nc3ccccc3NC3=C2C(=O)CC(c2ccc(OC)cc2)C3)c1 (stereo not given)
2. COc1ccc(C2CC(=O)C3=C(C2)Nc2ccccc2NC3c2cccc(C(F)(F)F)c2)cc1OC (stereo not given)
3. CC1(C)CC(=O)C2=C(C1)Nc1ccccc1NC2c1ccc(-c2ccccc2)cc1 (stereo not given)
4. COc1ccc(C2CC(=O)C3=C(C2)Nc2ccccc2NC3c2ccccc2C(F)(F)F)cc1OC (stereo not given)

[3, 122, 114, 72]

----------
System: HeLa thapsigargin-induced death, ATPlite luminescence, 24 h
assayDetails: HeLa survival under thapsigargin ER stress – cell-based, HeLa cervical carcinoma, ATP content, SAR follow-up (AID 1356)
testConditions: measured here: survival at thapsigargin 15 uM; at 25 µM; stronger effect = higher value
For each record, write down the corresponding survival.
Give bare numbers, in %.

Recorded results for 2 molecules are shown here.
COc1ccc(C2CC(=O)C3=C(C2)Nc2ccccc2NC3c2cccc(Br)c2)cc1OC (stereo not given) | 93
COc1ccc(C2CC(=O)C3=C(C2)Nc2ccccc2NC3c2cccc(Oc3ccccc3)c2)cc1OC (stereo not given) | 96

For every item below, please supply its survival.
1. COc1ccc(C2CC(=O)C3=C(C2)Nc2ccccc2NC3c2ccccc2C(F)(F)F)cc1OC (stereo not given)
2. O=C1CC(c2ccccc2)CC2=C1C(c1c(F)cccc1Cl)Nc1ccccc1N2 (stereo not given)
3. COc1ccc(C2CC(=O)C3=C(C2)Nc2ccccc2NC3c2cccc(C(F)(F)F)c2)cc1OC (stereo not given)

1: 107; 2: 89; 3: 100
